- Tested on: diaphorase
- test-protocol: Formation of formazan dyes: NADH and diaphorase, absence of malate (TABLE 7)
- Format: biochemical, Clostridium kluyveri
- condition-info: NADH and diaphorase, absence of malate; 6 h
measured-parameter: Formation of formazan dyes, absorbance, Means 6 h

INSERT INTO results (compound, study_system, observed_value) VALUES
  ('COc1cc(-c2ccc(-[n+]3nc(-c4ccc(C(=O)N(CCS(=O)(=O)[O-])CCS(=O)(=O)[O-])cc4)nn3-c3nc4ccccc4s3)c(OC)c2)ccc1-[n+]1nc(-c2ccc(C(=O)N(CCS(=O)(=O)[O-])CCS(=O)(=O)[O-])cc2)nn1-c1nc2ccccc2s1.[Na+].[Na+] [WST-5]', 'diaphorase', 2.83),
  ('COc1cc([N+](=O)[O-])c(S(=O)(=O)[O-])cc1-n1nc(C(=O)Nc2ccccc2)n[n+]1-c1cc(S(=O)(=O)O)c([N+](=O)[O-])cc1OC [XTT]', 'diaphorase', 2.39),
  ('Cc1nc(-[n+]2nc(-c3cccc(OCC(=O)O)c3)nn2-c2ccc(S(=O)(=O)[O-])cc2)sc1C [MTS]', 'diaphorase', 3.29),
  ('O=[N+]([O-])c1ccc(-[n+]2nc(-c3ccc(S(=O)(=O)[O-])cc3S(=O)(=O)[O-])nn2-c2ccc(I)cc2)cc1.[Na+] [WST-1]', 'diaphorase', 3.59),
  ('COc1cc([N+](=O)[O-])ccc1-[n+]1nc(-c2ccc(S(=O)(=O)[O-])cc2S(=O)(=O)[O-])nn1-c1ccc([N+](=O)[O-])cc1.[Na+] [WST-8]', 'diaphorase', 3.64);
